Provide the recorded growth for the entries that follow.
System: MCF7 breast
experiment notes: NCI-60 one-dose screen, 48 h (100 = growth as untreated, 0 = no growth, -100 = all killed)
test settings: 10 µM unless noted
About 83,000 compounds went through this panel and 20% of them were active in at least one assay; those are over-represented in the sample as a whole.
Numbers only here, please. The scale is %.

Query: Can you look up the measured growth of CCOC(=O)C1=C(N)N(c2ccccc2)C2=C(C(=O)CC(C)(C)C2)C1c1ccc(N2CCOCC2)cc1 (stereo unspecified) for me?
Result: 90.7

Query: Requested field: growth. Item: COc1ccc(C(=O)/C=C/c2ccc(OCc3ccccc3)c(OC)c2)cc1OC
Result: 10.5

Query: Look up growth: CCN(CC)CCOc1ccc(Nc2ncc3cc(-c4ccc(O)c(C#N)c4)c(=O)n(C)c3n2)cc1
Result: 16.8

Query: Look at this molecule and give its reported growth. COc1cc2oc(-c3cccc(C(=O)Nc4cccc([N+](=O)[O-])c4)c3)cc(=O)c2c(OC)c1OC
Result: 25.1

Query: Consider the molecule Cc1cc(=O)oc2cc(OCCOc3ccc(/C=C/C(=O)Nc4ccccc4N)cc3)ccc12 and give its measured growth.
Result: 5.65

Query: Fill blank: measured growth of the molecule CN1CCN(/C(=N\c2sc(-c3ccccc3)nc2-c2ccccc2)c2ccccc2)CC1 is ____.
Result: 75.1

Query: Entry NS(=O)(=O)c1ccc(-n2cc(-c3cccc(NC(=O)c4cc(N5CCOCC5)cc(C(F)(F)F)c4)c3)nn2)cc1 has what growth?
Result: 72.9

Query: Entry CC(=O)Oc1ccccc1C(=O)[Se]C(=NC1CCCCC1)NC1CCCCC1 has what growth?
Result: -82.1

Query: Given the entry OCNc1ccc(-n2cnc3cc(-c4ccc(O)cc4)ccc32)cc1C(F)(F)F , report its measured growth.
Result: 10.1

Query: Would you kindly share the measured growth for Cn1cc(-c2cc3nc(-c4c[nH]c5ccc(Cl)cc45)cc(N)n3n2)c2ccccc21 ?
Result: -73.7

Query: Endpoint output: growth of CC1(C)CC[C@]2(C(=O)Nc3ccccc3)CC[C@]3(C)C(=CCC4[C@@]5(C)C[C@@H](O)[C@H](O)[C@@](C)(CO)C5CC[C@]43C)C2C1 (stereo partly specified) . Value?
Result: 19.6

Query: What measured growth goes with COc1ccc(/C=C2\C(=O)Nc3ccc(Cl)cc32)cc1OCc1ccccn1 ?
Result: 34.7

Query: Dear colleague, I am looking for the recorded growth of the following molecule: COc1ccc(C(=O)/C=C/c2ccc(Cl)c(Cl)c2)cc1S(N)(=O)=O
Result: -48.7

Query: For Cc1cccc(-c2nc(Nc3cccc(S(N)(=O)=O)c3)c3ccccc3n2)c1 , what is its reported growth?
Result: 33.3

Query: // growth lookup, key: O=C(NNc1ccccc1)n1c(=O)c2ccccc2c(=O)n1-c1ccccc1
Result: 88.3

Query: What value of measured growth is listed for COc1cc2c(c(OC)c1OC)C(=O)CC(c1cccc(NC(=O)c3cccc(NC(=O)[C@H](C)NC(=O)OC(C)(C)C)c3)c1)O2 (stereo partly specified) ?
Result: 39.3

Query: Any idea what growth was measured for Cc1ccc(C2=NN(c3nc(-c4cc5ccccc5oc4=O)cs3)C(c3ccc(C)cc3)C2)cc1 (stereo unspecified) ?
Result: 63.4

Query: What value of growth has been recorded for this entry: COc1ccc(-c2nc(SC(C)C)nc(NCCc3c[nH]c4ccccc34)c2C#N)cc1
Result: 7.2

Query: Tell me the measured growth of O=C1c2c(c3c4cc(F)ccc4oc3c3[nH]c4ccc(Br)cc4c23)C(=O)N1O , please.
Result: 15.6

Query: Consider the molecule shown here: COc1ccc2oc(=O)c(C3(C)NC(=O)c4c(/C=C/C(=O)OC(C)(C)C)cccc4N3)cc2c1 (stereo unspecified) What is its recorded growth?
Result: 24.1

Query: Which growth value belongs to Cc1ccc(NCC(=O)Cn2cc(COc3ccc(C=Nc4cnc5ccccc5c4)cc3)nn2)cc1 ?
Result: 102

Query: Give the measured growth of C#CCOc1ccc(/C=N/Nc2nc(-c3ccc(Cl)cc3)cs2)cc1OC .
Result: 21.8

Query: // returns reported growth for input Cc1c(C(=O)NNC(=O)Nc2ccc(Cl)cc2)nnn1-c1ccc(Br)cc1
Result: 85

Query: I am curious: what growth value has been reported for N=C1N=C(SCc2nc3ccccc3[nH]2)NC(=O)/C1=C/c1ccc(Cl)cc1 ?
Result: 96.9

Query: I am curious: what growth value has been reported for O=C(O)Cn1c(O)c(/C=C2/C=c3cc4c(cc3=NC2=O)OCCO4)sc1=S ?
Result: 86.3

Query: // query growth value for entry O=C1/C(=C/C2=Cc3ccccc3OC2)SC(=S)N1c1ccccc1F
Result: 78.4

Query: // returns reported growth for input O=C(NNc1nc2cc(C(F)(F)F)ccc2n2cccc12)c1cnccn1
Result: -62.4

Query: Reported growth, molecule Cc1ncsc1-c1ccc(CNC(=O)[C@@H]2C[C@@H](O)CN2C(=O)[C@@H](NC(=O)C2(F)CC2)C(C)(C)C)c(OCCOCCOCCOCCOc2nc(Nc3cc(S(C)(=O)=O)ccc3N[C@@H](c3cccc4c3OC(F)(F)O4)c3ncccc3Cl)nc(N3CCNCC3)n2)c1 : ____
Result: 5.45

Query: Look up growth: CCOP(=O)(OCCCl)c1nc(-c2ccc(C)cc2)oc1NCc1ccccc1 (stereo unspecified)
Result: 50.3

Query: Request the reported growth associated with CCCSc1nc(NCCc2c[nH]c3ccccc23)c(C#N)c(-c2ccc(F)cc2)n1
Result: 35.3

Query: Return reported growth; argument: Cc1ccc(C(=O)NN2C(=O)/C(=C/C=C/c3ccc([N+](=O)[O-])o3)SC2=S)cc1
Result: -49.2

Query: Would you kindly share the measured growth for N#Cc1c(-c2cccc(O)c2O)cc(-c2ccc3ccccc3c2)[nH]c1=O ?
Result: 59.8

Query: Reported growth for Cc1ccc(C2CC(c3ccc(S(=O)(=O)NCCNc4nc(Nc5ccc(F)cc5)nc(N(C)C)n4)cc3)=Nc3c(N)nc(N)nc3N2)cc1 (stereo unspecified) : what is it?
Result: 18.7

Query: May I ask what growth has been recorded for CCCCOc1ccc(NC(=O)c2sc3nc(C)ccc3c2N)cc1 ?
Result: 18.1

Query: Entry CN(C)c1ccnc(NCCCSC(c2ccccc2)(c2ccccc2)c2ccccc2)c1 : reported growth = ?
Result: -35.8

Query: Which growth value is on record for COc1ccc(C(=O)/C=C/c2ccc(OCc3ccc(F)cc3)c(OC)c2)cc1OC ?
Result: 7.56
